# Target: HLA-B*58:01
# Protocol description: IEDB peptide-MHC binding, purified MHC/direct/fluorescence; filed as Kd, often an IC50 or EC50 that approximates it; bounds were set here for any values at or beyond the usual limits of such assays
# Study conditions: source organism: Lake Victoria marburgvirus - Popp
Recorded metric: Kd

{"columns": ["Primary sequence", "Target", "Value observed"],
 "data": [
  ["KSPDVHEDF", "HLA-B*58:01", "921 nM"]
]}

----------
# Target: HLA-A*02:01
# Protocol description: IEDB peptide-MHC binding, purified MHC/direct/fluorescence; filed as Kd, often an IC50 or EC50 that approximates it; bounds were set here for any values at or beyond the usual limits of such assays
# Study conditions: source organism: Marburg virus - Musoke, Kenya, 1980

{"columns": ["Primary sequence", "Kd"],
 "data": [
  ["SEINNLNLT", "≥ 20 µM"]
]}

The origin of these recorded values is the Immune Epitope Database (IEDB).
